Value source: ChEMBL document CHEMBL2321751

assayProcedure: Permeability of the compound at pH 7.4 by PAMPA
Format: ADME
testContext: PAMPA, read-out: permeability
quantityKind: Papp (×10⁻⁶ cm/s)
Express it in ×10⁻⁶ cm/s; write the number only.

Noted for O=C(Nc1cccc(-c2nc3ccccc3s2)c1)c1cc([N+](=O)[O-])c(N2CCOCC2)cc1Cl : its Papp reads 18

Reported Papp of O=C(Nc1ccc(Cl)c(-c2nc3ccccc3s2)c1)c1cc([N+](=O)[O-])ccc1Cl : 3

Field Papp (entry O=C(Nc1cccc(-c2nc3ccccc3s2)c1)c1cc([N+](=O)[O-])c(O)cc1Cl ) reads 307

response.value for O=C(Nc1cccc(-c2nc3ccccc3[nH]2)c1)c1cc([N+](=O)[O-])ccc1Cl (field: Papp) = 352

The compound identified as O=C(Nc1nc(-c2ccc(Cl)cc2)cs1)c1cc([N+](=O)[O-])ccc1Cl registered its Papp at 3

Value of measured Papp for the entry O=C(Nc1nc2ccc(Cl)cc2s1)c1cc([N+](=O)[O-])ccc1Cl : 138

For reference, reported Papp for O=C(Nc1cc(-c2nc3ccccc3o2)ccc1F)c1cc([N+](=O)[O-])ccc1Cl stands at 214

Lab note: O=C(Nc1ccc(Cl)c(C(F)(F)F)c1)c1cc([N+](=O)[O-])ccc1Cl gave Papp of 8

// recorded Papp for O=C(Nc1ccc(-c2ccccc2)cc1)c1cc([N+](=O)[O-])ccc1Cl : 26

The measured Papp associated with O=C(Nc1nc(-c2cccc(F)c2)cs1)c1cc([N+](=O)[O-])ccc1Cl reads 3

// recorded Papp for Cc1ccc(-c2nc3ccccc3s2)cc1NC(=O)c1cc([N+](=O)[O-])c(N2CCC(C(=O)O)CC2)cc1Cl : 17

The recorded Papp for Cc1ccc(-c2nc3ccccc3s2)cc1NC(=O)c1cc([N+](=O)[O-])ccc1Cl is 41

Looking up O=C(Nc1nc2c(Cl)cccc2s1)c1cc([N+](=O)[O-])ccc1Cl , I see its Papp listed as 242

Entry CCOC(=O)Cc1cc(Cl)c(C(=O)Nc2cc(-c3nc4ccccc4s3)ccc2C)cc1[N+](=O)[O-] — recorded Papp = 10

// field: Papp; key: Cc1ccc(-c2nc3ccccc3s2)cc1NC(=O)c1cc([N+](=O)[O-])c(N2CCNCC2)cc1Cl ; value = 4

Data point: Cc1cc(NC(=O)c2cc([N+](=O)[O-])ccc2Cl)cc(-c2nc3ccccc3s2)c1O ; Papp = 48

Data point: COc1cc(Cl)c(C(=O)Nc2cccc(-c3nc4ccccc4s3)c2)cc1[N+](=O)[O-] ; Papp = 12

---

assayProcedure: Permeability of the compound at pH 7.4 by PAMPA
Assay type: ADME
testContext: PAMPA, read-out: permeability
Give measured Papp for each item. Keep answers brief.

The molecule listed as O=C(Nc1ccc(F)c(-c2nc3ccccc3o2)c1)c1cc([N+](=O)[O-])ccc1Cl has a reported Papp of 366 ×10⁻⁶ cm/s

Record summary for COc1ccc(-c2nc3ccccc3s2)cc1NC(=O)c1cc([N+](=O)[O-])c(N2CCN(C)CC2)cc1Cl : reported Papp = 676 ×10⁻⁶ cm/s

Value of Papp reported for the molecule COC(=O)C1CCN(c2cc(Cl)c(C(=O)Nc3cc(-c4nc5ccccc5s4)ccc3C)cc2[N+](=O)[O-])CC1 is 24 ×10⁻⁶ cm/s

According to the records, this molecule Cc1ccc(-c2nc3ccccc3s2)cc1NC(=O)c1cc([N+](=O)[O-])c(N2CCN(C)CC2)cc1Cl displays Papp of 74 ×10⁻⁶ cm/s

Recorded result, O=C(Nc1nc2ccc(F)cc2s1)c1cc([N+](=O)[O-])ccc1Cl , Papp: 10 ×10⁻⁶ cm/s

# Papp (molecule: O=C(Nc1cc(C(F)(F)F)cc(C(F)(F)F)c1)c1cc([N+](=O)[O-])ccc1Cl ) is 44 ×10⁻⁶ cm/s

The molecule listed as O=C(Nc1cccc(-c2nc3ccccc3s2)c1)c1cc([N+](=O)[O-])ccc1Cl shows Papp equal to 12 ×10⁻⁶ cm/s

Entry O=C(Nc1cccc(-c2nc3ccccc3o2)c1)c1cc([N+](=O)[O-])ccc1Cl ; Papp = 45 ×10⁻⁶ cm/s

The recorded Papp for O=C(Nc1cc(-c2nc3ccccc3s2)ccc1F)c1cc([N+](=O)[O-])ccc1Cl is 191 ×10⁻⁶ cm/s

Briefly, Papp measured for O=C(Nc1nc(-c2ccc(F)c(F)c2)cs1)c1cc([N+](=O)[O-])ccc1Cl : 37 ×10⁻⁶ cm/s

Form field Papp, entry Cc1cc(NC(=O)c2cc([N+](=O)[O-])ccc2Cl)cc(-c2nc3ccccc3o2)c1O : 105 ×10⁻⁶ cm/s

Given item O=C(Nc1ccc(F)c(-c2nc3ccccc3s2)c1)c1cc([N+](=O)[O-])ccc1Cl , the value recorded as its Papp is 17 ×10⁻⁶ cm/s

So, COC(=O)C1CCN(c2cc(Cl)c(C(=O)Nc3cc(-c4nc5ccccc5s4)ccc3OC)cc2[N+](=O)[O-])CC1 ? Its Papp was < 1 ×10⁻⁶ cm/s

Just so you know, measured Papp for COc1ccc(-c2nc3ccccc3o2)cc1NC(=O)c1cc([N+](=O)[O-])ccc1Cl came out at 274 ×10⁻⁶ cm/s

Please fill in: Papp reported for O=C(O)COc1cc(Cl)c(C(=O)Nc2cccc(-c3nc4ccccc4s3)c2)cc1[N+](=O)[O-] = < 1 ×10⁻⁶ cm/s

The reported value for CN1CCN(c2cc(Cl)c(C(=O)Nc3cccc(-c4nc5ccccc5s4)c3)cc2[N+](=O)[O-])CC1 in terms of Papp is 366 ×10⁻⁶ cm/s

Value of measured Papp for the entry COc1ccc(-c2nc3ccccc3s2)cc1NC(=O)c1cc([N+](=O)[O-])c(N2CCC(C(=O)O)CC2)cc1Cl : 5 ×10⁻⁶ cm/s

Entry under test: O=C(Nc1cccc(-c2nc3ccccc3s2)c1)c1cc([N+](=O)[O-])c(N2CCNCC2)cc1Cl . Its Papp was 276 ×10⁻⁶ cm/s

---

assayProcedure: Kinetic solubility of the compound in PBS buffer at pH 3.0 after 18 hrs by UV spectrophotometric analysis
Type: physicochemical
testContext: read-out: Kinetic_solubility
quantityKind: solubility kinetic at 18 h (µM)
Express it in µM; write the number only.

Lab note: Cc1ccc(-c2nc3ccccc3s2)cc1NC(=O)c1cc([N+](=O)[O-])c(N2CCNCC2)cc1Cl gave solubility kinetic at 18 h of 1.15

Consider O=C(Nc1cccc(-c2nc3ccccc3s2)c1)c1cc([N+](=O)[O-])ccc1Cl . Its measured solubility kinetic at 18 h is 0.51

The compound listed as Cc1ccc(-c2nc3ccccc3s2)cc1NC(=O)c1cc([N+](=O)[O-])c(N2CCN(C)CC2)cc1Cl shows solubility kinetic at 18 h equal to 0.56

Given item O=C(Nc1cccc(-c2nc3ccccc3s2)c1)c1cc([N+](=O)[O-])c(N2CCNCC2)cc1Cl , the value recorded as its solubility kinetic at 18 h is 0.98

solubility kinetic at 18 h reading for O=C(Nc1cccc(-c2nc3ccccc3s2)c1)c1cc([N+](=O)[O-])c(N2CCOCC2)cc1Cl : 0.07

// solubility kinetic at 18 h value for CN1CCN(c2cc(Cl)c(C(=O)Nc3cccc(-c4nc5ccccc5s4)c3)cc2[N+](=O)[O-])CC1 : 46

---

assayProcedure: Kinetic solubility of the compound in PBS buffer at pH 7.4 after 18 hrs by UV spectrophotometric analysis
Type: physicochemical
testContext: PBS buffer, pH 7.4; read-out: Kinetic_solubility
Returns Criterion met if the recorded solubility kinetic at 18 h is greater than or equal to 0.6 µM, and Criterion not met otherwise.

Incoming: Can O=C(Nc1ccc(F)c(-c2nc3ccccc3s2)c1)c1cc([N+](=O)[O-])ccc1Cl be said to have solubility kinetic at 18 h at or above 0.6 µM?
Outgoing: Criterion not met

Incoming: I'd appreciate it if you could say whether O=C(O)COc1cc(Cl)c(C(=O)Nc2cccc(-c3nc4ccccc4s3)c2)cc1[N+](=O)[O-] has solubility kinetic at 18 h at least equal to 0.6 µM.
Outgoing: Criterion met

Incoming: Could you verify whether the entry CCOC(=O)Cc1cc(Cl)c(C(=O)Nc2cc(-c3nc4ccccc4s3)ccc2C)cc1[N+](=O)[O-] shows solubility kinetic at 18 h of no less than 0.6 µM?
Outgoing: Criterion not met

Incoming: Threshold query (solubility kinetic at 18 h >= 0.6 µM) on O=C(Nc1nc2ccc(Cl)cc2s1)c1cc([N+](=O)[O-])ccc1Cl
Outgoing: Criterion met

Incoming: Given O=C(Nc1ccc(-c2ccccc2)cc1)c1cc([N+](=O)[O-])ccc1Cl , state whether its solubility kinetic at 18 h is at least 0.6 µM.
Outgoing: Criterion not met

Incoming: Entry O=C(Nc1cc(-c2nc3ccccc3s2)ccc1Cl)c1cc([N+](=O)[O-])ccc1Cl : is its solubility kinetic at 18 h no less than 0.6 µM?
Outgoing: Criterion not met

Incoming: Can O=C(Nc1cccc(-c2nc3ccccc3[nH]2)c1)c1cc([N+](=O)[O-])ccc1Cl be said to have solubility kinetic at 18 h at or above 0.6 µM?
Outgoing: Criterion met

Incoming: Assess whether reported solubility kinetic at 18 h for Cc1ccc(-c2nc3ccccc3o2)cc1NC(=O)c1cc([N+](=O)[O-])ccc1Cl sits at 0.6 µM or higher.
Outgoing: Criterion not met

Incoming: Entry COc1ccc(-c2nc3ccccc3s2)cc1NC(=O)c1cc([N+](=O)[O-])c(N2CCC(C(=O)O)CC2)cc1Cl : is its solubility kinetic at 18 h no less than 0.6 µM?
Outgoing: Criterion not met

Incoming: Could you verify whether the entry O=C(Nc1nc(-c2cccc(F)c2)cs1)c1cc([N+](=O)[O-])ccc1Cl shows solubility kinetic at 18 h of no less than 0.6 µM?
Outgoing: Criterion met

Incoming: Answer whether solubility kinetic at 18 h of O=C(Nc1cccc(-c2nc3ccccc3s2)c1)c1cc([N+](=O)[O-])c(O)cc1Cl is greater than or equal to 0.6 µM.
Outgoing: Criterion met

Incoming: Decide: solubility kinetic at 18 h of COc1ccc(NC(=O)c2cc([N+](=O)[O-])ccc2Cl)cc1-c1nc2ccccc2s1 >= 0.6 µM?
Outgoing: Criterion not met

Incoming: Does COc1ccc(-c2nc3ccccc3s2)cc1NC(=O)c1cc([N+](=O)[O-])c(N2CCN(C)CC2)cc1Cl have a reported solubility kinetic at 18 h of at least 0.6 µM?
Outgoing: Criterion not met

Incoming: Dear colleague, could you confirm whether COc1ccc(-c2nc3ccccc3o2)cc1NC(=O)c1cc([N+](=O)[O-])ccc1Cl has solubility kinetic at 18 h at or above 0.6 µM?
Outgoing: Criterion not met

Incoming: In plain terms: is recorded solubility kinetic at 18 h at least 0.6 µM for O=C(Nc1cccc(-c2nc3ccccc3s2)c1)c1cc([N+](=O)[O-])c(N2CCOCC2)cc1Cl ?
Outgoing: Criterion not met

Incoming: Is reported solubility kinetic at 18 h greater than or equal to 0.6 µM here: Cc1ccc(-c2nc3ccccc3s2)cc1NC(=O)c1cc([N+](=O)[O-])c(N2CCN(C)CC2)cc1Cl
Outgoing: Criterion met

Incoming: Quick check, solubility kinetic at 18 h >= 0.6 µM? COc1cc(Cl)c(C(=O)Nc2cccc(-c3nc4ccccc4s3)c2)cc1[N+](=O)[O-]
Outgoing: Criterion not met
